# PROTOCOL NOTES: Solubility of lipophilic triazine screening agents in oils (prior art solvents and solvents of the invention)
# Type: physicochemical
# TEST PARAMETERS: oil: Compound (m) of the invention; weight/weight; solution left at laboratory temperature for 1 month, no crystal or oily deposit
I'd be grateful if you could share measured solubility of the screening agent in the oil for these entries.
Numeric only. Scale: % gel

(Q) In one line, give reported solubility of the screening agent in the oil of the entry CC(C)(C)CC(C)(C)NC(=O)c1ccc(Nc2nc(NCCC[Si](C)(O[Si](C)(C)C)O[Si](C)(C)C)nc(Nc3ccc(C(=O)NC(C)(C)CC(C)(C)C)cc3)n2)cc1 .
(A) 60

(Q) In one line, give reported solubility of the screening agent in the oil of the entry CC(C)(C)COC(=O)C(=Cc1ccc(Nc2nc(Nc3ccc(C=C(C(=O)OCC(C)(C)C)C(=O)OCC(C)(C)C)cc3)nc(Nc3ccc(C(=O)NC(C)(C)C)cc3)n2)cc1)C(=O)OCC(C)(C)C .
(A) 60

(Q) In one line, give reported solubility of the screening agent in the oil of the entry CC(C)(C)COC(=O)C(=Cc1ccc(Nc2nc(Nc3ccc(C=C(C(=O)OCC(C)(C)C)C(=O)OCC(C)(C)C)cc3)nc(Nc3ccc(C=C(C(=O)OCC(C)(C)C)C(=O)OCC(C)(C)C)cc3)n2)cc1)C(=O)OCC(C)(C)C .
(A) 60

(Q) In one line, give reported solubility of the screening agent in the oil of the entry CCCCOC(=O)c1ccc(Nc2nc(NCCC[Si](C)(O[Si](C)(C)C)O[Si](C)(C)C)nc(Nc3ccc(C(=O)OCCCC)cc3)n2)cc1 .
(A) 60

(Q) In one line, give reported solubility of the screening agent in the oil of the entry CCCCOC(=O)c1ccc(Nc2nc(Nc3ccc(C=C(C(=O)OCC(C)(C)C)C(=O)OCC(C)(C)C)cc3)nc(Nc3ccc(C=C(C(=O)OCC(C)(C)C)C(=O)OCC(C)(C)C)cc3)n2)cc1 .
(A) 60

The measured values listed here are drawn from patent US20100183530A1.
